Test: NCI Yeast Anticancer Drug Screen. Data for the bub3 strain (AID 167)
Details: S. cerevisiae bub3 mutant strain, at 50.0 µM, hits give high values
Compounds without any hit were thinned out: in the full panel of roughly 79,000, 15% have a hit.
Readout: growth inhibition (%)
Answers are plain numbers, in %.

Examples from the recorded data:
> print(dat)
                                  molecule            readout  endpoint.value
1           CCOC(=O)CNc1ccccc1[N+](=O)[O-]  growth inhibition            13.1
2             CCOC(=O)C(CCC(=O)OC)C(=O)OCC  growth inhibition           -5.25
3  O=C1CN(c2ccccc2)C(=O)CN1/N=C/c1ccc[nH]1  growth inhibition            -7.7

# per-item lookup of growth inhibition; items listed below
1. COC(=O)C1CCCN1C(=O)c1ccccc1 (stereo not drawn)
2. CSc1nc2c(c(O)c(C)c(=O)n2C2OC(COC(C)=O)C(OC(C)=O)C(OC(C)=O)C2OC(C)=O)c(=O)n1C (stereo not drawn)
3. COc1ccc(C2=C(OC(C)=O)c3cccn3-c3ccccc3S2)cc1
4. COCCOCCOCCOC(C)=O

Result:
[-5, 34.7, -45.8, -5.3]

###

Please respond with reported growth inhibition for every item in the list.
Assay: NCI Yeast Anticancer Drug Screen. Data for the rad50 strain (AID 155);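 note: 0% = growth of vehicle-only cultures of the same strain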
Conditions: S. cerevisiae rad50 strain growth inhibition; at 50.0 µM; hits give high values
The panel holds about 79,000 compounds, 15% with a hit somewhere; the sample as a whole holds those more often.
One number for each entry, in %.

> print(dat)
                                   molecule  endpoint.value
1                Clc1c(Cl)c2ccccc2c2ccccc12            10.1
2  CCCCOC(=O)C(N)Cc1ccccc1 (configuration not stated)           -20.4
3          Cc1ccc2nc(NC(=O)OCc3ccccc3)sc2c1             4.1
4  CCC1C(OC)=CC2(CC)CC1(OC)OC2=O (configuration not stated)           -4.75
5  COc1cc(O)c2c(c1)C(=O)c1cc3c(c(O)c1C2=O)C(O)C(OC)C(C)(O)C3O (configuration not stated)            72.5

Required: growth inhibition, one value per molecule below.
1. O=C(c1ccccc1)c1ccc2ccccc2c1C(=O)O
2. C=C(CO)[C@H]1Oc2ccc(C(C)=O)cc2[C@@H]1O
3. O=C1c2cccc3cccc(c23)C(=O)N1CCO
4. O=C1CCC(=O)N1CCc1cccc2ccccc12
5. O=C(Nc1ccccc1)c1nccc2ccccc12

Result:
1. -8.25
2. -16.1
3. 50.6
4. 5.45
5. 1.45

Fill in growth inhibition for each of the 6 molecules listed.
1. NC(CSS(=O)(=O)O)=NCCCCC1CCCCC1
2. S=C1SCCCN1c1ccccc1
3. COC1CC(C)OC(OC2C(C)/C=C/C(=O)OC(C)C(COC3OC(C)C(O)C(OC)C3OC)C3OC3/C=C/C(=O)C(C)(O)CC2C)C1O (configuration not stated)
4. CCCn1c(C)nc2c(N)cc(C)cc21
5. NC(=O)N=C(NC(N)=O)NC(N)=O
6. NC(=O)c1ccccc1N=NNc1ccccc1

Result:
-6.3
-6.35
1.55
-5.9
-17.1
17.5

For every item below, please supply its growth inhibition.
1. Cn1ccc(=O)c2ccccc21
2. CCCCCCNC(=O)/C(=C\c1ccc(Cl)cc1Cl)NC(=O)c1ccccc1
3. NC(=S)N/N=C/c1cc(=O)c2cc(Cl)ccc2o1
4. COC1CCC(OC)(C(=O)NN)O1 (configuration not stated)

Result:
1. 3.1
2. -3.7
3. -0.05
4. -22.9

###

What growth inhibition was measured for each of the following?
Experiment: NCI Yeast Anticancer Drug Screen. Data for the cln2 rad14 strain (AID 165);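 note: 0% = growth equal to vehicle treated cultures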
Settings: S. cerevisiae cln2 rad14 strain, at 50.0 µM, hits give high values
Compounds without any hit were thinned out: in the full panel of roughly 79,000, 15% have a hit. Calls of active or inactive are those of the source. Cut-off read from the data, not from the text of the source: active = growth inhibition above about 70%; inactive = the rest.

# batch: return growth inhibition for each of the 8 compounds below
1. O=S(O)OS(=O)O
2. CCCCCCCCCCCCCCCC(=O)O
3. Cc1ccc(-n2cnc3c(Cl)ncnc32)cc1
4. COc1ccc(C2C(Cl)C(=O)N2NC(=O)c2ccc(NC(C)=O)cc2)cc1 (configuration not stated)
5. CCOC(C)C1C2CCCCC21 (configuration not stated)
6. CC/C(=C\c1ccc(Cl)cc1)c1ccncc1
7. c1ccc(C2=C(c3ccccn3)N=c3ccccc3=c3ccccc3=N2)nc1
8. CCCCNc1nc(SC)nc2nc[nH]c12

Result:
1: -0.4% (inactive); 2: -2.9% (inactive); 3: -15.2% (inactive); 4: -9.35% (inactive); 5: -54% (inactive); 6: 99% (active); 7: -48.6% (inactive); 8: -21.2% (inactive)

List growth inhibition for every entry below, keeping the order given.
1. Cc1ccc(S(=O)(=O)NC(=O)NC23CC4CC(CC(F)(C4)C2)C3)cc1
2. CSc1ccc2c(cc1=O)[C@@H](NC(C)=O)CCc1cc(O)c(O)c(O)c1-2
3. CC(C)Cc1ccc(C(C)CC2=CCC(CN(C)C)C2=O)cc1 (configuration not stated)
4. BrCCC[n+]1ccc2ccccc2c1-c1nccc2ccccc12
5. Cc1ccc(S(=O)(=O)N2CCN(S(=O)(=O)c3ccc(C)cc3)CCN(S(=O)(=O)c3ccc(C)cc3)Cc3cc(Br)c(Br)cc3CN(S(=O)(=O)c3ccc(C)cc3)CC2)cc1
6. CC1=C(C(=O)Nc2ccc(C)cc2)C(c2cccc([N+](=O)[O-])c2)C(C(=O)Nc2ccc(C)cc2)=C(C)N1
7. Cc1cc(C)c2c(c1)Nc1ccccc1P2c1ccccc1 (configuration not stated)

Result:
1. 9.5% (inactive)
2. 4.85% (inactive)
3. 84.4% (active)
4. 33.2% (inactive)
5. 17.6% (inactive)
6. 13.8% (inactive)
7. 31.1% (inactive)

For each listed entry, give its growth inhibition.
1. O=C(Nc1ccc(Cl)cc1)Nc1ccc(Cl)nn1
2. CCOC(=O)c1ccc(N=C(N)N)cc1

Result:
1. -39.8% (inactive)
2. 11% (inactive)

###

Give growth inhibition for every item shown.
Assay: NCI Yeast Anticancer Drug Screen. Data for the rad50 strain (AID 155);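 note: 0% = growth of vehicle-only cultures of the same strain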
Details: S. cerevisiae rad50 strain growth inhibition; at 50.0 µM; hits give high values
About 79,000 compounds went through this panel and 15% of them were active in at least one assay; those are over-represented in the sample as a whole.
One number for each entry, in %.

Would you mind listing growth inhibition for each of the following molecules?
1. CCOC(=O)CN(C=O)C(C)c1ccccc1 (stereo not given)
2. CC(C)(NC(=O)OC12CC3CC(CC(C3)C1)C2)C(=O)O
3. Clc1ccc(CCn2ccc3ccccc32)c(Cl)c1
4. c1ccc(SC2(Sc3ccccc3)CCCC2)cc1

Result:
[13.1, -11.1, -12.6, -9.15]

The value of growth inhibition measured for the molecule CC(NC(=O)C(=O)c1ccccc1)c1ccccc1 (stereo not given) turned out to be 10.4

###

Experiment: NCI Yeast Anticancer Drug Screen. Data for the bub3 strain (AID 167)
Settings: S. cerevisiae bub3 mutant strain, at 50.0 µM, hits give high values
About 79,000 compounds went through this panel and 15% of them were active in at least one assay; those are over-represented in the sample as a whole.
For each entry below, report its growth inhibition value.
Answers are plain numbers, in %.

Example cases with answers are listed next.
Compound	Measurement units	growth inhibition
N#CCCCCCCCCCCC(=O)O	%	-59.4
CCCCOC(=O)c1ccc(NC(=O)Nc2ccc([N+](=O)[O-])cc2OC)cc1	%	-0.8
O=[N+]([O-])c1cc(C(F)(F)F)ccc1F	%	-12.4

For each listed entry, give its growth inhibition.
1. CC1(c2cccc[n+]2Cc2ccc(Cl)c(Cl)c2)OCCO1
2. CCCCSc1nc2ccc([N+](=O)[O-])cc2s1
3. CCOC(=O)Cc1csc(NC(NC(=O)OCC)(C(=O)OCC)C(F)(F)F)n1 (centres undefined)
4. CN(C)C(=O)C1CCNCC1

Result:
[-2.2, 4.45, -12.3, -11.3]

###

Hi there, I'd appreciate the recorded growth inhibition for every entry that follows.
Assay: NCI Yeast Anticancer Drug Screen. Data for the mec2-1 strain (AID 157)
Conditions: S. cerevisiae mec2-1 strain, at 50.0 µM, hits give high values
This is part of a sample that, as a whole, favours compounds with a hit. Of some 79,000 tested, about 15% had one in any assay.
One number for each entry, in %.

Consider the following illustrative entries.
> print(dat)
                                   compound  endpoint.value
1  CCCCCN(CCCCC)CC(O)c1cc(-c2ccccc2)nc2c(Cl)cc(Cl)cc12 (configuration not stated)            -1.1
2  Cc1ccc(NC(Nc2ccc(C)c(Cl)c2)C(Cl)(Cl)Cl)cc1Cl             -24
3          CC(=O)CC(C)(C)NC(=S)Nc1ccc(C)cc1            46.1
4                            NC(=S)c1ccncc1            8.15
5  CC1(C)CC(=O)C(C(CCC2CCCCC2=O)C2C(=O)CC(C)(C)CC2=O)C(=O)C1 (configuration not stated)            7.95

Give me growth inhibition for each of these compounds, listed below.
1. COC(=O)CCC(CCC(=O)O)([N+](=O)[O-])[N+](=O)[O-]
2. O=C(Oc1ccc(OC(=O)c2ccccc2)c(C2CCCCCC2)c1)c1ccccc1
3. N#C/C(=C/NC(=S)N=Nc1c(O)[nH]c2ccccc12)C(N)=O
4. COc1ccc(/C=C/C=C/C(=O)O)cc1OC
5. C/C(=N/Nc1ccc([N+](=O)[O-])cc1[N+](=O)[O-])C1=CCCCC1
6. CN(C)CCC(OC(=O)c1ccccc1Cl)c1ccccc1 (configuration not stated)

Result:
1: -5.65; 2: -1.75; 3: -51.7; 4: -9.7; 5: -1.35; 6: 10.1

Provide growth inhibition for all items below, preserving their order.
1. O=C1CCCC(CCc2ccccc2)O1 (configuration not stated)
2. CCOC(C)OCCCI (configuration not stated)
3. C=C1N(C)c2ccccc2C1(C)C

Result:
[-4.05, -21.3, 10.2]

Items follow; give growth inhibition for each.
1. CCCCSCCOC(=O)C1C2CCC(O2)C1C(=O)O (configuration not stated)
2. Cn1c(=O)oc2cc(C(=O)CN3CCN(Cc4ccc5c(c4)OCO5)CC3)c(Cl)cc21
3. Cc1ccc(-c2cc(=S)n(-c3ccccc3)c3nc(=S)n(-c4ccccc4)c(N)c23)cc1
4. O=C(Cc1nc2sc3c(c2c(=O)[nH]1)CCCC3)Nc1ccccc1
5. Cc1ccc2[nH]c(=O)[nH]c2c1
6. COc1ccc(NC(=O)Nc2ccc(SC)cc2)c(Cl)c1

Result:
1. -3.85
2. 26.4
3. 24.4
4. -12.3
5. -6.2
6. 5.6

Go through the list and state growth inhibition for each entry.
1. CCCCNS(=O)(=O)c1ccc(-c2ccc3c(c2)-c2ccc(S(=O)(=O)NCCCC)cc2S3(=O)=O)cc1
2. Nc1cc(=O)n(C2OC(CO)C(O)C2O)cn1 (configuration not stated)
3. CCOc1ccc(NC=O)cc1

Result:
[7.05, -8.35, 8.45]

Value sought for every listed compound: growth inhibition.
1. COC(=O)CCC1(CCC(=O)OC)CCCCCCC(CCC(=O)OC)(CCC(=O)OC)C(=O)C1=O
2. COC1=CC(=O)[C@H]2[C@H](C)C(c3ccccc3)[C@@]2(C)C1=O (some centres not stated)
3. Cc1cc(S(N)(=O)=O)c2ncccc2c1
4. O=c1ccn(C2OC(CF)C(O)C2O)c(=O)[nH]1 (configuration not stated)
5. O=C(Nc1ccc2ccccc2c1)c1ccc(Cl)cc1
6. O=C1C(Br)=CC(Br)=C/C1=N/Br
7. c1ccc(-c2nc3c(N4CCOCC4)ncnc3o2)cc1

Result:
[-0.5, -1.5, -3.5, -2.85, -9.65, 61.5, -4.65]

Please look at the items below and tell me growth inhibition for each one, in order.
1. O=C(CCCCCCC(=O)C[N+]12CCC(CC1)C(O)C2)C[N+]12CCC(CC1)C(O)C2 (configuration not stated)
2. O=S(=O)([O-])Sn1c(-c2ccccc2)c[n+]2ccccc12
3. O=c1nc(-c2ccccc2)cc(Cc2ccc3ccccc3n2)[nH]1
4. CCn1c2ccccc2c2ccc(N=Cc3ccc4ccccc4c3)cc21
5. CCCCCCC1CCC(O)CC1 (configuration not stated)
6. CCNC(=O)c1ccccc1C(=O)c1ccccc1
7. CCCOC(=O)C(CC)CC(C)C (configuration not stated)

Result:
4.2
5.55
25.8
-2.3
2.95
1.2
2.85

For every item in the list below, what is its measured growth inhibition?
1. Cc1cc(C)c(Br)c(C)c1
2. CCCCOC(=O)/C(CC(=O)C=C(C)C)=N\NS(=O)(=O)c1ccc(C)cc1
3. Cc1cccc(N=N/C(=N\NC(=O)c2cc(Cl)ccc2O)c2ccc(N(CCC#N)CCC#N)cc2C)c1
4. NCCCCC(N)C(=O)O (configuration not stated)
5. Nc1nc(N)c(CCCCc2ccc([N+](=O)[O-])cc2)c(N)n1
6. O=S(O)CCCCSSCC(O)CO (configuration not stated)
7. CCCC(=O)OC1C(CO)OC(n2cc(F)c(=O)[nH]c2=O)C1F (configuration not stated)

Result:
[0.45, -14.1, -1, 9.25, 21.1, 9.65, 6.4]

Please report growth inhibition for every entry that follows.
1. CCCCCCCCCCCCC/C=C/CC(CC(=O)Nc1ccc(-n2c(=O)cc(C)n2C)cc1)C(=O)O (configuration not stated)
2. O=C(O)CCC1CCc2cccc(O)c2C1=O (configuration not stated)
3. O=C(Nc1ccc(S(=O)(=O)N2CCCCC2)cc1)OC1CCCCC1

Result:
1: -24.1; 2: 3.3; 3: 3.75

All values here come from PubChem BioAssay (NCI).
